Reference source for all entries: patent US20130011378A1

Assay: Non-denaturing SEC: percent main peak / aggregates of insulin and rHuPH20
Type: physicochemical
Settings: 35° C., 1 day
Procedure: Reference samples were stored in HPLC vials at 10° C. prior to use. Samples were stored in HPLC vials at 10° C. prior to use, for up to 3 days. 0.5× Phosphate Buffered Saline (PBS) solution was prepared by diluting 10×PBS with HPLC grade water. Insulin percent purity was expressed as percentage of the insulin main peak versus the total insulin peaks. The target specification is less than 2% high molecular weight protein, i.e., insulin aggregates. […]
Where a name gives a salt, the structure may show the parent alone.
ATTRIBUTE MEASURED: % Main rHuPH20 peak by non-denaturing SEC (%)
Entry rule: numbers only, all in %.

These solved cases illustrate the format of a correct answer.
COMPOUND | UNIT ABBREV | READOUT VALUE
N[C@@H](Cc1ccccc1)C(=O)O | % | 98.86
C[CH2][Hg][S]c1ccccc1C(=O)[O-].[Na+] | % | 98.31
N=C(NCCCCCCNC(=N)NC(=N)Nc1ccc(Cl)cc1)NC(=N)Nc1ccc(Cl)cc1.O=C(O)[C@H](O)[C@@H](O)[C@H](O)[C@H](O)CO.O=C(O)[C@H](O)[C@@H](O)[C@H](O)[C@H](O)CO [Chlorhexidine digluconate] | % | 98.23

Next:
Query: Reported % Main rHuPH20 peak by non-denaturing SEC for [H]/N=C(\N/C(=N/[H])NCCCCCCNC(=N)NC(=N)Nc1ccc(Cl)cc1)Nc1ccc(Cl)cc1 [Chlorhexidine dihydrochloride] : what is it?
Result: 98.12
